# tested_on: respiratory chain complex II (Rattus norvegicus, UniProt P21913+Q641Z9+Q6PCT8+Q920L2)
# Construct: from tissue; host or cells: rat liver mitochondria (male Wistar rats)
# Sequence (Q920L2 35-656): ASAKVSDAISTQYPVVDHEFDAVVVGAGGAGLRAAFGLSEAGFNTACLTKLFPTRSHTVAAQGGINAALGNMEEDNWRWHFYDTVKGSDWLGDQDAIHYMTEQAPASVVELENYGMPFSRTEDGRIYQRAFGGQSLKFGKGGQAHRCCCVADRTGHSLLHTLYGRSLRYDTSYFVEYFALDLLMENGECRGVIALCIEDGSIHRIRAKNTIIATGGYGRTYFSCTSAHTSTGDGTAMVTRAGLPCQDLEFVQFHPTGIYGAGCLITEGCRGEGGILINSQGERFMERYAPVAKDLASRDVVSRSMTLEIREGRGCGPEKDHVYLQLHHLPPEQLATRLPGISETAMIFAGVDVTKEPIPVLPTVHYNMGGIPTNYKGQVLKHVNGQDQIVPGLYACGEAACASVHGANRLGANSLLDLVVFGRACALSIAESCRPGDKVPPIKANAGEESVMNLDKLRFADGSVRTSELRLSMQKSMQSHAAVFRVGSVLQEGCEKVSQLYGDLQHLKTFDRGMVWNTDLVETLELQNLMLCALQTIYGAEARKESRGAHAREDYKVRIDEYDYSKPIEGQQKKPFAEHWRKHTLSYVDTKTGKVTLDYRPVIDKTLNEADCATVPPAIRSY
# Sequence (P21913 31-282): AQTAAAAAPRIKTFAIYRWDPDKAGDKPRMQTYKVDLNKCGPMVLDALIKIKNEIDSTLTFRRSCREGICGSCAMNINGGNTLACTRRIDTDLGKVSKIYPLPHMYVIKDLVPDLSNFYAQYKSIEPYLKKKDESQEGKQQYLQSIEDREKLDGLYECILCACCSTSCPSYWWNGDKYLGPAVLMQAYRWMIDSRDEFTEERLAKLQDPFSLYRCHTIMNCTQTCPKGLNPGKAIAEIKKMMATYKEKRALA
# Sequence (Q641Z9 30-169 limits assumed): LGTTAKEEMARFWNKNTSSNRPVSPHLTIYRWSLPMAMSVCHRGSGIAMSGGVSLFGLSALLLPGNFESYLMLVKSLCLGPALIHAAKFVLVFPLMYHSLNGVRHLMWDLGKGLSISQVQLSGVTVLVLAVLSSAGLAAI
# Sequence (Q6PCT8 57-159): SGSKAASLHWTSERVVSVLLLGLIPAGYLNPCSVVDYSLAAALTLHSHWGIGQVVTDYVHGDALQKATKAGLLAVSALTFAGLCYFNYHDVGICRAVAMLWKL
# protocol_text: Mitochondrial oxygen consumption with succinate as respiratory substrate
# Format: biochemical
# Procedure: Figure 5 Effect of DS16570511 on oxygen consumption in the presence of succinate. […] Changes in dissolved oxygen concentration in the reaction medium were measured, and representative traces are shown. […] (b) The degree of inhibition was calculated from the rate of oxygen consumption over a 3 min period, measured 30 s after SF6847 addition. […]
Exercise: state measured pIC50 for each of the compounds provided.
Answers are plain numbers, as −log10 of the molar value.

Cc1onc(-c2c(Cl)cccc2Cl)c1/C=N/c1cccc(C(=O)c2cn(CCCC(=O)O)c3ccccc23)c1 [Compound 3]    4.28

Continue with the next compound.
Query: Read the entry Cc1onc(-c2c(Cl)cccc2Cl)c1CNc1cccc(C(=O)c2cn(CCCC(=O)O)c3ccccc23)c1 [DS16570511] and write its reported pIC50.
Result: 5.02

---

# tested_on: FoF1-ATPase/ANT
# protocol_text: Mitochondrial FoF1-ATPase activity (pH electrode)
# measurement_context: rat liver mitochondria, 1 mM ATP, antimycin, pH change over 3 min; read-out: IC50 for inhibition of FoF1-ATPase/ANT activity (pH decrease)
# Description: Figure 7 Effect of DS16570511 on mitochondrial FoF1-ATPase activity. […] (b) Mitochondria were added to the incubation medium containing the indicated concentrations of DS16570511 or oligomycin, and pH changes in the medium were measured using a pH electrode. […] (c) Inhibition was calculated from the pH change over a 3 min period, starting 30 s after adding mitochondria. […] Mitochondrial FoF1-ATPase activity was measured using a modified version of the classical pH electrode-based method. […]
quantity: pIC50
Numbers only, as −log10 of the molar value.

Query: Read the entry Cc1onc(-c2c(Cl)cccc2Cl)c1CNc1cccc(C(=O)c2cn(CCCC(=O)O)c3ccccc23)c1 [DS16570511] and write its reported pIC50.
Result: 4.01

Cited source: paper PMC11942279
